- Test system: MCF7 breast
- procedureDetails: NCI-60 one-dose screen, 48 h (100 = growth as untreated, 0 = no growth, -100 = all killed)
- statedConditions: 10 µM
Compounds without any hit were thinned out: in the full panel of roughly 83,000, 20% have a hit.
measuredParameter: growth (%)
Field: numeric (%). Do not append units.

q: Quick check: growth on MCF7 breast, item O=C(COc1cccc(/C=C2\CSc3ccccc3C2=O)c1)c1ccc(Cl)cc1 ?
a: -89.2

q: Quick check: growth on MCF7 breast, item O=S(=O)(NCCCNc1nccc(-c2cn(-c3ccccc3)nc2-c2ccc(Cl)c(O)c2)n1)c1ccccc1 ?
a: 33

q: Quick check: growth on MCF7 breast, item COc1cc(C(=O)N2CCN(c3cc4c(cc3F)c(=O)c(C(=O)NO)cn4C3CC3)CC2)cc(OC)c1OC ?
a: 99

q: Quick check: growth on MCF7 breast, item CN(C)CCC1(c2ccccc2)CCN(C)C1=O (stereo not given) ?
a: 106

q: Quick check: growth on MCF7 breast, item O=C(CC(CC(=O)c1ccccc1)c1ccccc1O)c1ccccc1 ?
a: 89.3

q: Quick check: growth on MCF7 breast, item CN(C)CCCOc1ccc(NC2=C(Cl)C(=O)C(Nc3ccc(OCCCN(C)C)cc3)=C(Cl)C2=O)cc1 ?
a: -49.4

q: Quick check: growth on MCF7 breast, item Cc1ccc(C(=O)C2C(=O)C3CCC2C3)cc1 (stereo not given) ?
a: 97.5

q: Quick check: growth on MCF7 breast, item O=C1c2ccccc2-c2c1c1cccnc1c(=O)n2C[C@H](O)CO ?
a: 25.5

q: Quick check: growth on MCF7 breast, item COc1cc(-c2csc(NC(=O)Nc3cc(C(F)(F)F)cc(C(F)(F)F)c3)n2)cc(OC)c1OC ?
a: 2.97

q: Quick check: growth on MCF7 breast, item Clc1ccc2c(c1)C(N1CCNCC1)=Nc1ccccc1O2 ?
a: 28.9
